src = ChEMBL document CHEMBL1136513

Assay: Half-life period at pH 9.2 in the presence of five times more lysine
Assay type: ADME
Assay Endpoint: half-life
Report field: quantity (unit follows the number).

Problem: Query: half-life; subject: C=CS(=O)(=O)NCc1ccc([N+](=O)[O-])cc1
Solution: 29.6 h

---

Experiment: Half-life period at pH 8.1 in the presence of five times more lysine
Assay type: ADME
Assay Endpoint: half-life (h)
Answers are plain numbers, in h.

Problem: Query: half-life; subject: C=CS(=O)(=O)NCc1ccc([N+](=O)[O-])cc1
Solution: 178
